assay: self-splicing fitness, log relative to wild type (ln ratio); higher = more splicing; Tetrahymena group I intron in knt gene, E. coli kanamycin selection, DiMSum; sequences stand for … in CUCUCU…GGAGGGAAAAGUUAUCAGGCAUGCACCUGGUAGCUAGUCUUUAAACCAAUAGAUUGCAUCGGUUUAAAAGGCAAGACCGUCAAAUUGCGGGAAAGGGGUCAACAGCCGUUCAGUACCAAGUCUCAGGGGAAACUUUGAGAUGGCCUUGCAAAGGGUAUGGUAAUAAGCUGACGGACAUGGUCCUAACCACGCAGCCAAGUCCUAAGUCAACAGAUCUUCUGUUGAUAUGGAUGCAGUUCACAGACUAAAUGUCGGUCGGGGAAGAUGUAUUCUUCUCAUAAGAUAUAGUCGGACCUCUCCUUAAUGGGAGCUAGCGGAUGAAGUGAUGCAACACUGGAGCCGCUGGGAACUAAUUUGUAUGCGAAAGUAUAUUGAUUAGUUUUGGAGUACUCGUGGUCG; conditions: 37 °C;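 further: selection with 25 µg/mL kanamycin versus none on LB agar overnight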
Label T when self-splicing fitness (ln) is at or above -2; anything below gets F.

Answered cases to consult:
{"columns": ["entry sequence", "cat"],
 "data": [
  ["UUCGAGCAAUAUUACGUGUA", "T"],
  ["ACGAAGCAAUAUUACGUGGG", "F"],
  ["ACAAAGCAAUAUUACGUGUC", "F"],
  ["AGCGAGCAAUAUUACGAUUA", "F"],
  ["CUAUAGCAAUAUUACGCUAU", "T"]
]}

Request: Given GCCGAGCAAUAUUACGGUAG , state whether its self-splicing fitness (ln) is at least -2.
Result: F

Request: Entry to check: UAUAAGCAAUAUUACGUUGU
Result: F

Request: Entry to check: GCCCAGCAAUAUUACGAAGA
Result: T

Request: Entry to check: CCUCAGCAAUAUUACGUCUU
Result: F

Request: Entry to check: GCUAAGCAAUAUUACGUUAG
Result: F

Request: Entry to check: AAGGAGCAAUAUUACGUCUU
Result: T

Request: Entry to check: CAGGAGCAAUAUUACGAGGU
Result: F

Request: Entry to check: GGCCAGCAAUAUUACGUAUU
Result: T

Request: Entry to check: UGACAGCAAUAUUACGUUAA
Result: T

Request: Entry to check: AUUGAGCAAUAUUACGCGGG
Result: F

====

Measured self-splicing fitness (ln) values are reported for all entries that follow.
test: self-splicing fitness, log relative to wild type (ln ratio); higher = more splicing; Tetrahymena group I intron in knt gene, E. coli kanamycin selection, DiMSum; sequences stand for … in CUCUCU…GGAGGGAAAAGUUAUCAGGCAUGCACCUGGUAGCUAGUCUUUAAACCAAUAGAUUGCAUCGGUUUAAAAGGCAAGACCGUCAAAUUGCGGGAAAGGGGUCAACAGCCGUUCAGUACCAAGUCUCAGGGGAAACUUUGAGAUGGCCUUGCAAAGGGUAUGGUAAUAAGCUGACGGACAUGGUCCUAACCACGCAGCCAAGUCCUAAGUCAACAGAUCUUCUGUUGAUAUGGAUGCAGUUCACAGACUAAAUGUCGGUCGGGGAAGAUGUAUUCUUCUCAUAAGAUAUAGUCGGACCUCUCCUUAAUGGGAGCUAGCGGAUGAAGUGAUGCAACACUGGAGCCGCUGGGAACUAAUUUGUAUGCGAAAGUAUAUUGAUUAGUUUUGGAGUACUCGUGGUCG; conditions: 37 °C
Please give only the number in your answer, with no unit.

Below are worked cases with known answers.
{"columns": ["entry sequence", "self-splicing fitness (ln)"],
 "data": [
  ["CCCUAGCAAUAUUACGUUCA", -2.7],
  ["CACUAGCAAUAUUACGAUCG", 0.717],
  ["UGUUAGCAAUAUUACGCUCU", -0.371]
]}

With those in mind, consider the next sequence.
Request: Bench note: what self-splicing fitness (ln) did UGCGAGCAAUAUUACGACAU show?
Result: -2.26

====

experiment: self-splicing fitness, log relative to wild type (ln ratio); higher = more splicing; Tetrahymena group I intron in knt gene, E. coli kanamycin selection, DiMSum; sequences stand for … in CUCUCU…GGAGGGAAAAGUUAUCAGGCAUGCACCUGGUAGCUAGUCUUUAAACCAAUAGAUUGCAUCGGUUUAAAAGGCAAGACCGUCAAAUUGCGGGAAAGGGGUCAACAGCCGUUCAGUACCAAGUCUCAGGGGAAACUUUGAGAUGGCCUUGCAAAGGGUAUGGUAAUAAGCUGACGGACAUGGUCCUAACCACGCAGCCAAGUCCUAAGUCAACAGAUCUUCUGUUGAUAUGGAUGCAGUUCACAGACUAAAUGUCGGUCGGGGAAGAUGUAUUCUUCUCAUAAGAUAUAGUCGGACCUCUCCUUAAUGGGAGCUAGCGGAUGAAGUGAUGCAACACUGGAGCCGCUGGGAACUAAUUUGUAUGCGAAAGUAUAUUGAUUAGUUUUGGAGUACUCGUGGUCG; settings: 37 °C
Definition: the class of an entry is the range in lower band (below -2), central band (-2 to below -0.6), upper band (-0.6 or more) that contains its self-splicing fitness (ln).

Answered cases to consult:
{"columns": ["entry sequence", "cat"],
 "data": [
  ["GCAUAGCAAUAUUACGUCGG", "central band"],
  ["UUAGAGCAAUAUUACGCAAU", "central band"],
  ["CCUCAGCAAUAUUACGGGUC", "lower band"]
]}

Request: Which class is correct for the following sequence? AACCAGCAAUAUUACGACAA
Result: upper band

Request: Entry to check: CGACAGCAAUAUUACGUUCU
Result: upper band

Request: Entry to check: CCCGAGCAAUAUUACGGAUC
Result: lower band

Request: Entry to check: GGCAAGCAAUAUUACGUCAU
Result: upper band

Request: Entry to check: CGACAGCAAUAUUACGUAAU
Result: lower band

====

assay: self-splicing fitness, log relative to wild type (ln ratio); higher = more splicing; Tetrahymena group I intron in knt gene, E. coli kanamycin selection, DiMSum; sequences stand for … in CUCUCU…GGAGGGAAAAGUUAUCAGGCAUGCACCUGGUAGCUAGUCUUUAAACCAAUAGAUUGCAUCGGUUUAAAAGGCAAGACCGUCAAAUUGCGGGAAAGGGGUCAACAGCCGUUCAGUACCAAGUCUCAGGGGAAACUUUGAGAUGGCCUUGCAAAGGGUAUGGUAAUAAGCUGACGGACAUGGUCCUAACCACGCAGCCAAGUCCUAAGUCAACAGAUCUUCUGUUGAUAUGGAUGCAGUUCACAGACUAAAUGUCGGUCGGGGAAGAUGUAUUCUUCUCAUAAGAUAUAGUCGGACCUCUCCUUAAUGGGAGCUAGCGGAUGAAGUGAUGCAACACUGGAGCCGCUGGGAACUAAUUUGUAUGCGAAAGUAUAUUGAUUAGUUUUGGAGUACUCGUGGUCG; settings: 30 °C
Measured self-splicing fitness (ln) values are reported for all entries that follow.
Please give only the number in your answer, with no unit.

Below are worked cases with known answers.
{"columns": ["entry sequence", "measurement"],
 "data": [
  ["AGAUAGCAAUAUUACGCACG", -1.13],
  ["CUAAAGCAAUAUUACGAUGU", -3.84],
  ["AAAAAGCAAUAUUACGUUCC", -1.3]
]}

Request: Bench note: what self-splicing fitness (ln) did UUUUAGCAAUAUUACGCCGU show?
Result: -2.64

Request: Entry to check: UGGCAGCAAUAUUACGUGAU
Result: -1.46

Request: Entry to check: AAUUAGCAAUAUUACGGGGC
Result: -2.38

====

experiment: self-splicing fitness, log relative to wild type (ln ratio); higher = more splicing; Tetrahymena group I intron in knt gene, E. coli kanamycin selection, DiMSum; sequences stand for … in CUCUCU…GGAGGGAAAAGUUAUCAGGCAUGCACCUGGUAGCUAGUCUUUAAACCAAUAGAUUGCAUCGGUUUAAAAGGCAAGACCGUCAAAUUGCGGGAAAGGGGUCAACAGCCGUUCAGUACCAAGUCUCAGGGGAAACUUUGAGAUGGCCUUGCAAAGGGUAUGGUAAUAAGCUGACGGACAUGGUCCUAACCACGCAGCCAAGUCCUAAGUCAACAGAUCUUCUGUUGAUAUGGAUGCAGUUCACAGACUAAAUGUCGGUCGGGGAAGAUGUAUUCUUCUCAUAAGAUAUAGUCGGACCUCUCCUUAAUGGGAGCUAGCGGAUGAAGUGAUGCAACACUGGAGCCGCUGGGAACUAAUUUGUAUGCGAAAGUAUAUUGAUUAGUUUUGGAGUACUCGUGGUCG; settings: 37 °C
Label Yes when self-splicing fitness (ln) is at or above -2; anything below gets No.

{"columns": ["entry sequence", "cat"],
 "data": [
  ["ACAGAGCAAUAUUACGGGGA", "No"],
  ["UAGGAGCAAUAUUACGGGUA", "No"]
]}

Request: Given AAGUAGCAAUAUUACGUUCU , state whether its self-splicing fitness (ln) is at least -2.
Result: Yes

Request: Entry to check: ACGGAGCAAUAUUACGCGAA
Result: Yes

Request: Entry to check: GACCAGCAAUAUUACGAGAA
Result: Yes

Request: Entry to check: AUCAAGCAAUAUUACGCAAA
Result: Yes

Request: Entry to check: CCCGAGCAAUAUUACGGGCU
Result: No

Request: Entry to check: CUGUAGCAAUAUUACGUACA
Result: Yes
